Listing of entries alongside the reported Cytotoxicity J-774 murine macrophages CC50.
Tested on: J-774 murine macrophages
Test: Cytotoxicity against murine macrophage cells
Details: J-774, Alamar blue
The reply should be a number in µg/mL, with the unit left off.

compound	units	recordedResult
O=Cc1cc2c(cc1O)[nH]c1ccccc12 [Compound 6b]	µg/mL	21

Checklist item: Cytotoxicity J-774 murine macrophages CC50 tested on J-774 murine macrophages, entry O=Cc1cc2c(cc1O)[nH]c1ccc([N+](=O)[O-])cc12 [Compound 6f] , value?
20.0

Another compound to check: COc1ccc2[nH]c3cc(O)c(C)cc3c2c1 [Compound 13]
20

Entry O=Cc1cc2c(cc1O)[nH]c1ccc(C(F)(F)F)cc12 [Compound 6c] please
9.8

Another: O=Cc1cc2c(cc1O)[nH]c1ccc(OC(F)(F)F)cc12 [Compound 6d]
8.0

Would you mind doing CCn1c2ccccc2c2cc(C=O)ccc21 [Compound 14] as well?
21
